System: mice
Measurement context: Table 3
Value kind: LD50 mice p.o.

Solved cases (3 shown):
Input smiles	Value
CCCCOC(=O)CC(C)(c1ccc(O)c(C)c1)c1ccc(O)c(C)c1	> 8000 mg/kg
CCCCOC(=O)CCC(C)(c1ccc(O)c(C(C)(C)C)c1)c1ccc(O)c(C(C)(C)C)c1	> 8000 mg/kg
CCCCOC(=O)CC(C)(c1ccc(O)c(C(C)(C)C)c1)c1ccc(O)c(C(C)(C)C)c1	> 8000 mg/kg

Now look at this one.
What the record says about `CC(C)(C)c1cc(C(C(=O)O)c2cc(C(C)(C)C)c(O)c(C(C)(C)C)c2)cc(C(C)(C)C)c1O` : LD50 mice p.o. is 6000 to 8000 mg/kg

###

# serum triglyceride, change in percentage (B: referred to the untreated control group) listing for each entry below
System: normolipemic rats
Measurement description: Reduction of serum lipid values in normolipemic rats (8 days oral)
Assay type: in vivo, rat
Measurement context: 30 mg/kg/day p.o., 8 doses, male rats, column B
Answer with the value and then the unit.

Compound	Value
CCCCOC(=O)CC(C)(c1ccc(O)c(C)c1)c1ccc(O)c(C)c1 [Example 8]	-22%
CCCCOC(=O)CCC(C)(c1ccc(O)c(C(C)(C)C)c1)c1ccc(O)c(C(C)(C)C)c1 [Example 15]	-37%
CC(C)(C)c1cc(C(C)(CC(=O)OCCOC(=O)CC(C)(c2ccc(O)c(C(C)(C)C)c2)c2ccc(O)c(C(C)(C)C)c2)c2ccc(O)c(C(C)(C)C)c2)ccc1O [Example 16]	-32%

Now look at this one.
normolipemic rats assay, compound CC(C)(C)c1cc(C(C(=O)O)c2cc(C(C)(C)C)c(O)c(C(C)(C)C)c2)cc(C(C)(C)C)c1O [Example 3] , recorded serum triglyceride, change in percentage (B: referred to the untreated control group) = -46%

###

# change in vivo at 100 mg/kg listing for each entry below
System: dietetic-medicamentous hyperlipemia of male rats
Measurement description: Action on the dietetic-medicamentous hyperlipemia of male rats
Type: in vivo
Measurement context: Rattus norvegicus, po, 192 h; 100 mg/kg/day p.o., 8 days, male rats on cholesterol diet; read-out: serum cholesterol, change in percentage as compared to the control group
Experimental: All the animals were fed with a diet food containing 2% of cholesterol, 2% of sodium cholate, 0.3% of methyl-thiouracil, 20% of coco fat and 44% of cane sugar. […] The lipid phosphorus was determined according to the method of Messrs. […]
All answers are understood in %, so give the number only.

Solved cases (4 shown):
Compound	change in vivo at 100 mg/kg, %
CCCCOC(=O)CCC(C)(c1ccc(O)c(C(C)(C)C)c1)c1ccc(O)c(C(C)(C)C)c1 [Example 15]	-57
CC(C)(C)c1cc(C(C(=O)O)c2ccc(O)c(C(C)(C)C)c2)ccc1O [Example 4]	-29
CC(C)(C)c1cc(C(C(=O)O)c2cc(C(C)(C)C)c(O)c(C(C)(C)C)c2)cc(C(C)(C)C)c1O [Example 3]	-23
CCCCOC(=O)CC(C)(c1ccc(O)c(C(C)(C)C)c1)c1ccc(O)c(C(C)(C)C)c1 [Example 7]	-30

What the record says about CCCCOC(=O)CC(C)(c1ccc(O)c(C)c1)c1ccc(O)c(C)c1 [Example 8] : change in vivo at 100 mg/kg is -36

What the record says about Cc1cc(C(C)(CC(=O)O)c2ccc(O)c(C)c2)ccc1O [Example 1] : change in vivo at 100 mg/kg is -11

What the record says about CCOC(=O)C(C)(C)Oc1ccc(Cl)cc1 [Clofibrat, reference compound] : change in vivo at 100 mg/kg is 0

What the record says about CC(C)(C)c1cc(C(C)(CCC(=O)O)c2ccc(O)c(C(C)(C)C)c2)ccc1O [Example 14] : change in vivo at 100 mg/kg is -36
